B1: TPR 5TU (parent)
chain: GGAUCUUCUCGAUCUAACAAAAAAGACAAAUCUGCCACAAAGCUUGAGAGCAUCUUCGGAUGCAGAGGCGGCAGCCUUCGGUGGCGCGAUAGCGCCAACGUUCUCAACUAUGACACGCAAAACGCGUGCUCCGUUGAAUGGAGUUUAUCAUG

Variants of: B1
Assay: polymerase ribozyme fitness, log enrichment relative to wild type (log ratio); higher = more active; in vitro selection for triplet polymerase activity
This sample holds only a part of the variants without activity.

>  <mutationId>
U56A G58A C76U C123U C125G G143A

>  <op>
=

>  <polymerase ribozyme fitness (log ratio)>
0.457

$$$$
>  <mutationId>
C18G G42A C54U G94A

>  <op>
≤

>  <polymerase ribozyme fitness (log ratio)>
-4.2

$$$$
>  <mutationId>
A98U G141U

>  <op>
=

>  <polymerase ribozyme fitness (log ratio)>
1.39

$$$$
>  <mutationId>
A39U C69U C75U G84U U127G

>  <op>
≤

>  <polymerase ribozyme fitness (log ratio)>
-4.2

$$$$
>  <mutationId>
G25C C38A G50C G92C U130G

>  <op>
≤

>  <polymerase ribozyme fitness (log ratio)>
-4.2

$$$$
>  <mutationId>
A21C G84A C95A U104C

>  <op>
=

>  <polymerase ribozyme fitness (log ratio)>
-0.91

$$$$
>  <mutationId>
A39U A91C G141C U148G

>  <op>
≤

>  <polymerase ribozyme fitness (log ratio)>
-4.2

$$$$
>  <mutationId>
A40U G62A C95U U104C G133C

>  <op>
=

>  <polymerase ribozyme fitness (log ratio)>
-3.3

$$$$
>  <mutationId>
A23U G84A

>  <op>
=

>  <polymerase ribozyme fitness (log ratio)>
-3.32

$$$$
>  <mutationId>
G70A C79A C87G C99U C105U A142G

>  <op>
≤

>  <polymerase ribozyme fitness (log ratio)>
-4.2

$$$$
>  <mutationId>
A24C

>  <op>
=

>  <polymerase ribozyme fitness (log ratio)>
-3.22

$$$$
>  <mutationId>
C5G C54U G84A U127G

>  <op>
≤

>  <polymerase ribozyme fitness (log ratio)>
-4.2

$$$$
>  <mutationId>
U7C C38U C95A A119U

>  <op>
=

>  <polymerase ribozyme fitness (log ratio)>
-2.61

$$$$
>  <mutationId>
C14A A60G C85G C118G C132U

>  <op>
=

>  <polymerase ribozyme fitness (log ratio)>
-3.89

$$$$
>  <mutationId>
A52C C54A A89G G117A

>  <op>
=

>  <polymerase ribozyme fitness (log ratio)>
-3.55

$$$$
>  <mutationId>
G50A G84A U101C G117C U146G

>  <op>
=

>  <polymerase ribozyme fitness (log ratio)>
-0.884

$$$$
>  <mutationId>
A17U A28C C87A

>  <op>
≤

>  <polymerase ribozyme fitness (log ratio)>
-4.2

$$$$
>  <mutationId>
A19U A26C A30U C35U A41U G84A U135A

>  <op>
≤

>  <polymerase ribozyme fitness (log ratio)>
-4.2

$$$$
>  <mutationId>
C5G C79A C96A

>  <op>
≤

>  <polymerase ribozyme fitness (log ratio)>
-4.2

$$$$
>  <mutationId>
U56G G92U A97U C105U

>  <op>
=

>  <polymerase ribozyme fitness (log ratio)>
-1.61

$$$$
>  <mutationId>
G48A G133U

>  <op>
=

>  <polymerase ribozyme fitness (log ratio)>
-3.81

$$$$
>  <mutationId>
A52U G83A

>  <op>
=

>  <polymerase ribozyme fitness (log ratio)>
-2.83

$$$$
>  <mutationId>
U45G G84U

>  <op>
=

>  <polymerase ribozyme fitness (log ratio)>
-1.97

$$$$
>  <mutationId>
U61A G84A

>  <op>
=

>  <polymerase ribozyme fitness (log ratio)>
-1.38

$$$$
>  <mutationId>
C38A A89C C93G C95G C108U U135C

>  <op>
≤

>  <polymerase ribozyme fitness (log ratio)>
-4.2

$$$$
>  <mutationId>
C27G A37C U44A U45A C57U G68A G83A A119U A120U A147G

>  <op>
≤

>  <polymerase ribozyme fitness (log ratio)>
-4.2

$$$$
>  <mutationId>
U45A A52C G71A C99A G133U U145G

>  <op>
≤

>  <polymerase ribozyme fitness (log ratio)>
-4.2

$$$$
>  <mutationId>
A3U A30G C35G A39U G59A A60C C87U U134A

>  <op>
≤

>  <polymerase ribozyme fitness (log ratio)>
-4.2

$$$$
>  <mutationId>
U6A U56A U82G C103U

>  <op>
=

>  <polymerase ribozyme fitness (log ratio)>
-1.06

$$$$
>  <mutationId>
C51U C96U G124A

>  <op>
=

>  <polymerase ribozyme fitness (log ratio)>
-0.0401

$$$$
>  <mutationId>
A12C A22G C32G C51G A60U U77A G81C G128A U148C

>  <op>
≤

>  <polymerase ribozyme fitness (log ratio)>
-4.2

$$$$
>  <mutationId>
A47C C93A A107G G140U

>  <op>
≤

>  <polymerase ribozyme fitness (log ratio)>
-4.2

$$$$
>  <mutationId>
A52C G70A U90G A106U

>  <op>
≤

>  <polymerase ribozyme fitness (log ratio)>
-4.2

$$$$
